Assay Target: UniProtKB Q99873
Sequence (Q99873 with tags, fused parts or gaps): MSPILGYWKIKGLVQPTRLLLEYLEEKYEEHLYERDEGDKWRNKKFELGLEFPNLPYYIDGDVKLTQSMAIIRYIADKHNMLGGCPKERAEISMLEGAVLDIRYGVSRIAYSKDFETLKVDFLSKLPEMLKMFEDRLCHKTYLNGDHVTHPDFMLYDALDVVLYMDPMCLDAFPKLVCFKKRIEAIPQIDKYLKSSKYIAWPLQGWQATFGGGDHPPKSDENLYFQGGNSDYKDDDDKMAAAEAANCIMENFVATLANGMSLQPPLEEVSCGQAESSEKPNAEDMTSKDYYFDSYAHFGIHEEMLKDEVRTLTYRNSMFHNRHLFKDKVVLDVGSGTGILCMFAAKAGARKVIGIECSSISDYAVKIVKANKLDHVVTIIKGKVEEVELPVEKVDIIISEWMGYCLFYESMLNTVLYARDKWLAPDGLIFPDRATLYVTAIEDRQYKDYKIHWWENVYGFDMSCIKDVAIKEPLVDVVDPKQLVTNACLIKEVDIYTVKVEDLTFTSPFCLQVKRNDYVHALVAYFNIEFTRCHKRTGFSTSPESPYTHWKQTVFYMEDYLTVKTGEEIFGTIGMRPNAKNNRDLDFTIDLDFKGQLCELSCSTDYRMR
// reported IC50 for each item listed
Metric: IC50 (nM)

>  <Compound>
COc1cccc(CNC(=O)c2cncc(-c3ccc(CNCCN)cc3)c2)c1

>  <Metric>
IC50

>  <Units Label>
nM

>  <Assay Result>
755

$$$$
>  <Compound>
CC(C)n1ncc2c(C(=O)N[C@@H](C)c3ccccc3)cc(-c3cccc(CN(C)CCN)c3)cc21

>  <Metric>
IC50

>  <Units Label>
nM

>  <Assay Result>
48.5

$$$$
>  <Compound>
CNCCN(C)Cc1cccc(-c2cc(C(=O)NCc3c(C)cc(C)[nH]c3=O)c(C)c3[nH]ncc23)c1

>  <Metric>
IC50

>  <Units Label>
nM

>  <Assay Result>
59.6

$$$$
>  <Compound>
CC(C)n1ncc2c(C(=O)N(C)Cc3ccccc3)cc(-c3cccc(CN(C)CCN)c3)nc21

>  <Metric>
IC50

>  <Units Label>
nM

>  <Assay Result>
128

$$$$
>  <Compound>
CN(CCN)Cc1cccc(-c2nc(NCc3ccncc3)c3cnn(C4CC4)c3n2)c1

>  <Metric>
IC50

>  <Units Label>
nM

>  <Assay Result>
274

$$$$
>  <Compound>
CNCCN(C)Cc1cccc(-c2cc(C(=O)NCCCC(=O)NCC3CCOCC3)c3cnn(C(C)C)c3n2)c1

>  <Metric>
IC50

>  <Units Label>
nM

>  <Assay Result>
248

$$$$
>  <Compound>
COc1cccc(Cc2nc3ccc(-c4ccc(CNCCN)cc4)cc3n2C(C)C)c1

>  <Metric>
IC50

>  <Units Label>
nM

>  <Assay Result>
932

$$$$
>  <Compound>
CNCCN(C)Cc1cccc(-c2cc(C(=O)NCCCCC(=O)NCc3c(C)cc(C)[nH]c3=O)c3cnn(C(C)C)c3n2)c1

>  <Metric>
IC50

>  <Units Label>
nM

>  <Assay Result>
232

$$$$
>  <Compound>
CNCCN(C)Cc1cccc(-c2nc(NCc3ccccn3)c3cnn(C4CC4)c3n2)c1

>  <Metric>
IC50

>  <Units Label>
nM

>  <Assay Result>
47.3

$$$$
>  <Compound>
CN(CCN)Cc1cccc(-c2nc(NC3CCOCC3)c3cnn(C(C)(C)C)c3n2)c1

>  <Metric>
IC50

>  <Units Label>
nM

>  <Assay Result>
72.8

$$$$
>  <Compound>
CN(CCN)Cc1cccc(-c2cc(C(=O)NC3CCOCC3)c3cnn(C)c3n2)c1

>  <Metric>
IC50

>  <Units Label>
nM

>  <Assay Result>
3020

$$$$
>  <Compound>
Cc1cc(C)c(CNC(=O)c2cncc(-c3ccc(CNCCN)cc3)c2)c(=O)[nH]1

>  <Metric>
IC50

>  <Units Label>
nM

>  <Assay Result>
335

$$$$
>  <Compound>
CNCCN(C)Cc1cccc(-c2cc(Oc3ccccc3)c3cnn(C(C)C)c3n2)c1

>  <Metric>
IC50

>  <Units Label>
nM

>  <Assay Result>
194

$$$$
>  <Compound>
CNCCN(C)Cc1cccc(-c2cnc3c(c2)OCC(=O)N3)c1

>  <Metric>
IC50

>  <Units Label>
nM

>  <Assay Result>
512

$$$$
>  <Compound>
CCS(=O)(=O)Nc1cc(-c2cccc(CN(C)CCN)c2)nc2c1cnn2C(C)C

>  <Metric>
IC50

>  <Units Label>
nM

>  <Assay Result>
585

$$$$
>  <Compound>
CCC(O)c1cc(-c2cccc(CN(C)CCNC)c2)nc2c1cnn2C(C)C (stereo not shown)

>  <Metric>
IC50

>  <Units Label>
nM

>  <Assay Result>
212

$$$$
